Source of measurements: patent US4232013A

- experimental-details: LD50 (acute toxicity)
- experimental-parameters: in vivo, topical or ocular; Table 1, topical administration
- Text: In the following Table 1. there are reported the achieved results with regard to the anti-inflammatory activity, the thymolitic activity, and the LD50 values: […]
The entries below come with measured LD50 values attached.
test-readout: LD50

>  <molecule>
CC(=O)OCC(=O)[C@@]12NN=C[C@@H]1C[C@H]1[C@@H]3CCC4=CC(=O)C=C[C@]4(C)[C@@]3(F)[C@@H](O)C[C@@]12C

>  <test-readout>
LD50

>  <result>
> 2000 mg/kg

$$$$
>  <molecule>
CC(=O)OCC(=O)[C@@]12N=NC[C@@H]1C[C@H]1[C@@H]3CCC4=CC(=O)C=C[C@]4(C)[C@@]3(F)[C@@H](O)C[C@@]12C

>  <test-readout>
LD50

>  <result>
721 mg/kg

$$$$
>  <molecule>
CC(=O)OCC(=O)[C@@]12NN=C[C@@H]1C[C@H]1[C@@H]3C[C@H](F)C4=CC(=O)C=C[C@]4(C)[C@@]3(F)[C@@H](O)C[C@@]12C

>  <test-readout>
LD50

>  <result>
1120 mg/kg

$$$$
>  <molecule>
CC(=O)OCC(=O)[C@@]12N=NC[C@@H]1C[C@H]1[C@@H]3C[C@H](F)C4=CC(=O)C=C[C@]4(C)[C@@]3(F)[C@@H](O)C[C@@]12C

>  <test-readout>
LD50

>  <result>
439 mg/kg

$$$$
>  <molecule>
CC(=O)OCC(=O)[C@@]1(O)[C@H](C)C[C@H]2[C@@H]3CCC4=CC(=O)C=C[C@]4(C)[C@@]3(F)[C@@H](O)C[C@@]21C [Dexamethasone 21-acetate, reference compound]

>  <test-readout>
LD50

>  <result>
259 mg/kg

$$$$
>  <molecule>
CC1(C)O[C@@H]2C[C@H]3[C@@H]4C[C@H](F)C5=CC(=O)C=C[C@]5(C)[C@@]4(F)[C@@H](O)C[C@]3(C)[C@]2(C(=O)CO)O1 [Fluocinolone acetonide, reference compound]

>  <test-readout>
LD50

>  <result>
166 mg/kg

$$$$
